Target: GPR119 (Homo sapiens, UniProt Q8TDV5)
Sequence (Q8TDV5 1-335): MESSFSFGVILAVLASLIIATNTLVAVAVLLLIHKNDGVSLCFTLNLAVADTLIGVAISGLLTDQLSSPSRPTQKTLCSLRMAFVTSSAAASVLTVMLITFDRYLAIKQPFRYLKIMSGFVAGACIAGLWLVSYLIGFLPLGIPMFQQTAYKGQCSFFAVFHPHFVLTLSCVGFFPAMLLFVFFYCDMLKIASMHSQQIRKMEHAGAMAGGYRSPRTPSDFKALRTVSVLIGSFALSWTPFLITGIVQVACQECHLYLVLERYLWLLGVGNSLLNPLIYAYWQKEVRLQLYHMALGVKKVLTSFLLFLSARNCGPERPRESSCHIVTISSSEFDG
Test: LANCE Ultra cAMP assay: stimulation of GPR119-mediated cAMP production in CHO cells stably expressing human GPR119 receptor
Assay type: cell-based
Details: Table A-2 entries 1-17; protocol as described (800 000 cells/mL, 5 uL/well); CHO-GPR119 cells
EC50 strictly less than 100 nM = condition met. Otherwise condition not met.

Below, 4 compounds whose answers are already recorded.
>  <compound>
CC(C)c1noc(N2CC(COc3ccc(-c4ccc5c(c4)OCS5(=O)=O)cc3F)C2)n1 [A-52]

>  <class>
condition met

$$$$
>  <compound>
CC(C)C(=O)N1CCC(COc2ccc(-c3ccc4c(c3)OCS4(=O)=O)cc2F)CC1 [A-21]

>  <class>
condition met

$$$$
>  <compound>
O=S1(=O)COc2cc(-c3ccc(OCc4cnc(C5CCN(c6ncc(Cl)cn6)CC5)s4)c(F)c3)ccc21 [Example A-58]

>  <class>
condition met

$$$$
>  <compound>
CC(C)c1noc(N2CCC(COc3ccc(-c4ccc5c(c4)OCS5(=O)=O)cc3F)CC2)n1 [Example A-59]

>  <class>
condition met

$$$$

Problem: For the compound CC(C)(C)N1CCC(COc2ccc(-c3ccc4c(c3)OCS4(=O)=O)cc2F)CC1 [A-13] , is EC50 under 100 nM?
condition not met

Problem: For the compound O=S1(=O)COc2cc(-c3ccc(OCC4CN(c5ncc(Cl)cn5)C4)c(F)c3)ccc21 [A-48] , is EC50 under 100 nM?
condition met

Problem: For the compound NCC(=O)N1CCC(COc2ccc(-c3ccc4c(c3)OCS4(=O)=O)cc2F)CC1 [A-17] , is EC50 under 100 nM?
condition not met

Problem: For the compound CC(C)[C@H](N)C(=O)N1CCC(COc2ccc(-c3ccc4c(c3)OCS4(=O)=O)cc2F)CC1 [A-19] , is EC50 under 100 nM?
condition not met

Problem: For the compound NC(=O)N1CCC(COc2ccc(-c3ccc4c(c3)OCS4(=O)=O)cc2F)CC1 [A-20] , is EC50 under 100 nM?
condition not met

Problem: For the compound O=S1(=O)COc2cc(-c3cnc(OCC4CCN(c5ncc(Cl)cn5)CC4)nc3)ccc21 [A-29] , is EC50 under 100 nM?
condition met

Problem: For the compound CC(C)(C)C(=O)N1CCC(COc2ccc(-c3ccc4c(c3)OCS4(=O)=O)cc2F)CC1 [A-15] , is EC50 under 100 nM?
condition met

====

biological target: GPR119 (Homo sapiens); assay: LANCE Ultra cAMP assay: stimulation of GPR119-mediated cAMP production in CHO cells stably expressing human GPR119 receptor; type: cell-based; details: CHO; Table A-2 entries 1-17; protocol as described; 100% = 10 uM Forskolin; read-out: % cAMP Max. relative to forscolin
Provide the reported Emax of each item.
Answers are plain numbers, in %.

Example results:
>  <molecule>
O=S1(=O)COc2cc(-c3ccc(OCc4cnc(C5CCN(c6ncc(Cl)cn6)CC5)s4)c(F)c3)ccc21 [Example A-58]

>  <unit symbol>
%

>  <test result>
73

$$$$
>  <molecule>
O=S1(=O)COc2cc(-c3cnc(OCC4CCN(c5ncc(Cl)cn5)CC4)nc3)ccc21 [A-29]

>  <unit symbol>
%

>  <test result>
80

$$$$
>  <molecule>
O=S1(=O)COc2ccc(-c3ccc(OCC4CCN(c5ncc(Cl)cn5)CC4)c(F)c3)cc21 [A-40]

>  <unit symbol>
%

>  <test result>
65

$$$$

Hey, quick one: what's Emax for each of these?
1. CC(C)c1noc(N2CCC(COc3ccc(-c4ccc5c(c4)OCS5(=O)=O)cc3F)CC2)n1 [Example A-59]
2. NC(=O)N1CCC(COc2ccc(-c3ccc4c(c3)OCS4(=O)=O)cc2F)CC1 [A-20]
3. CCc1cnc(N2CCC(COc3ccc(-c4ccc5c(c4)OCS5(=O)=O)cc3F)CC2)nc1 [A-24]
4. CN(C)C(=O)N1CCC(COc2ccc(-c3ccc4c(c3)OCS4(=O)=O)cc2F)CC1 [A-14]
5. CC(C)c1noc(N2CC(COc3ccc(-c4ccc5c(c4)OCS5(=O)=O)cc3F)C2)n1 [A-52]
6. O=S1(=O)COc2cc(-c3ccc(OCC4CCN(c5ncncn5)CC4)c(F)c3)ccc21 [A-42]
7. CC(C)(C)N1CCC(COc2ccc(-c3ccc4c(c3)OCS4(=O)=O)cc2F)CC1 [A-13]
8. O=S1(=O)COc2cc(-c3ccc(N4CCN(c5ncc(Cl)cn5)CC4)c(F)c3)ccc21 [Example A-65]

77
70
77
77
81
75
75
84

Log: GPR119 (Homo sapiens), molecule CC(C)[C@H](N)C(=O)N1CCC(COc2ccc(-c3ccc4c(c3)OCS4(=O)=O)cc2F)CC1 [A-19] , Emax = 65

====

Target: GPR119 (Homo sapiens, UniProt Q8TDV5)
Sequence (Q8TDV5 1-335): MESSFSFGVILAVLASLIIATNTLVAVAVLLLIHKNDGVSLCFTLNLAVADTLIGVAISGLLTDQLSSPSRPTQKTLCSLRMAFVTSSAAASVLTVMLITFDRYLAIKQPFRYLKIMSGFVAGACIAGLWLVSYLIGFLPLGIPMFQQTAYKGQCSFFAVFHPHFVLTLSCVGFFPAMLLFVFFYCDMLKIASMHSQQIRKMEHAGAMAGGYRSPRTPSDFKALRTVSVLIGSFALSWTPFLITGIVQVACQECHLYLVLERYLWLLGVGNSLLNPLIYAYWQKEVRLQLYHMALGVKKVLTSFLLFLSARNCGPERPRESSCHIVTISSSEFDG
Assay: PathHunter β-arrestin assay (enzyme fragment complementation, β-galactosidase reporter) monitoring activation of GPR119
Type: cell-based
Parameters: β-galactosidase enzyme fragment for EFC (by own knowledge the ProLink tag, fused to the receptor's C-terminus in PathHunter lines)
Settings: Table B-3, read-out: % cAMP Max.
Provide the reported Emax of each item.
Numbers only, in %.

Hey, quick one: what's Emax for each of these?
1. [O-][S@@+]1COc2cc(-c3ccc(OCC4CCN(c5ncc(Cl)cn5)CC4)c(F)c3)ccc21 [Example B-34]
2. CCc1cnc(N2CC[C@H](COc3ccc(-c4ccc5c(c4)OC[S@@+]5[O-])cc3)C2)nc1 [Example B-91]
3. COc1cnc(N2CCC(COc3ccc(-c4ccc5c(c4)OC[S@@+]5[O-])cc3F)CC2)nc1 [Example B-50]
4. [O-][S@@+]1COc2cc(-c3ccc(OC[C@H]4CCN(c5ncc(Cl)cn5)C4)c(F)c3)ccc21 [Example B-86]
5. [O-][S@+]1COc2cc(-c3ccc(OCC4CCN(c5ncc(Cl)cn5)CC4)c(F)c3)ccc21 [Example B-59]

[172, 155, 169, 133, 175]

====

target: GPR119 (Homo sapiens, UniProt Q8TDV5); assay: LANCE Ultra cAMP assay: stimulation of GPR119-mediated cAMP production in CHO cells stably expressing human GPR119 receptor; assay type: cell-based; details: Table A-2 entries 18-25; modified protocol, 500 cells/well
parameter: EC50 (nM)
Give bare numbers, in nM.

Example results:
>  <smiles record>
CCc1cnc(N2CCC(COc3cnc(-c4ccc5c(c4)OCS5(=O)=O)nc3)CC2)nc1

>  <EC50 (nM)>
8.2

$$$$
>  <smiles record>
CC(C)c1cnc(N2CCC(COc3ccc(-c4ccc5c(c4)OCS5(=O)=O)cc3F)CC2)nc1

>  <EC50 (nM)>
19.1

$$$$
>  <smiles record>
CCc1cnc(N2CC[C@H](COc3ccc(-c4ccc5c(c4)OCS5(=O)=O)cc3F)C2)nc1

>  <EC50 (nM)>
166

$$$$
>  <smiles record>
O=S1(=O)COc2cc(-c3ccc(OC[C@H]4CCN(c5ncc(Cl)cn5)C4)c(F)c3)ccc21

>  <EC50 (nM)>
46

$$$$
>  <smiles record>
CCc1cnc(N2CCC[C@H]2COc2ccc(-c3ccc4c(c3)OCS4(=O)=O)cc2F)nc1

>  <EC50 (nM)>
1310

$$$$
>  <smiles record>
CCc1ccnc(N2CC[C@H](COc3ccc(-c4ccc5c(c4)OCS5(=O)=O)cc3F)C2)n1

>  <EC50 (nM)>
58

$$$$
>  <smiles record>
COc1cnc(N2CCC(COc3ccc(-c4ccc5c(c4)OCS5(=O)=O)cc3F)CC2)nc1

>  <EC50 (nM)>
21.4

$$$$

Quick note, EC50 for `CCc1cnc(N2CCC[C@@H]2COc2ccc(-c3ccc4c(c3)OCS4(=O)=O)cc2F)nc1` landed at 1690
